Each recorded value in this set is attributed to PubChem BioAssay (NCI).

Assay: NCI Yeast Anticancer Drug Screen. Data for the cln2 rad14 strain (AID 165);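 also: 0% = growth equal to vehicle treated cultures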
Conditions: S. cerevisiae cln2 rad14 strain, at 5.0 µM (retest, dose inferred, filed as 0.5)
About 79,000 compounds went through this panel and 15% of them were active in at least one assay; those are over-represented in the sample as a whole. Calls of active or inactive are those of the source. Rule as the data show it: active = growth inhibition above about 70%; inactive = the rest.
Parameter call: string, one of yes (1) (active), no (0) (inactive)

# count of solved cases: 5
1. C/C(=N\NC(=S)N1CCC(C)CC1)c1ncccn1	no (0)
2. Clc1ccc(Oc2nc(Cl)nc3[nH]ncc23)cc1	no (0)
3. OC1c2cccn2-c2cc(Cl)ccc2SC1c1ccccc1 (centres undefined)	no (0)
4. CCC1CCC(CC)C1O (centres undefined)	no (0)
5. O=[N+]([O-])c1ccc(C(Nc2ccccc2)c2ccc3cccnc3c2O)cc1 (centres undefined)	no (0)

Challenge: Test call for this compound, please: O=c1[nH]c2c([N+](=O)[O-])cc(Cl)cc2nc1/C=C(\O)c1ccccn1
Response given: no (0)

Challenge: Test call for this compound, please: CCCC(=S)N1CCOCC1
Response given: no (0)

----------
Task for the reader: assign each of the following compounds its reported growth inhibition.
Assay: NCI Yeast Anticancer Drug Screen. Data for the mec2-1 strain (AID 157)
Conditions: S. cerevisiae mec2-1 strain, at 50.0 µM (retest, dose inferred, filed as 5.0), active compounds read high
The panel holds about 79,000 compounds, 15% with a hit somewhere; the sample as a whole holds those more often.
Answers are plain numbers, in %.

1) COC(=O)C(=O)C(/C=N/C(=S)NCCc1ccc(OC)c(OC)c1)=C(/O)c1ccc([N+](=O)[O-])cc1	-3
2) CCCCCCCCCCOC(=O)c1cc[n+](C)cc1	6
3) CC/C=C\C/C=C\C/C=C\CCCCCCCC(=O)OCC(O)CO (stereo unspecified)	37
4) O=C(CCC(O)(c1ccccc1)c1ccccc1)c1ccccc1	98
5) Cc1ccc2cccc(N)c2c1	9

Batch: growth inhibition for all items listed.
1. S=C(N/N=C/c1ccccn1)N1CC2CCC(CC2)C1
2. CN(C)CCCc1ccc2oc3ccccc3c2c1
3. Cc1ccccc1NC(=O)CSC(N)=O

Response given:
[100, 39, 34]

----------
Experiment: NCI Yeast Anticancer Drug Screen. Data for the mlh1 rad18 strain (AID 175)
Settings: S. cerevisiae mlh1 rad18 strain growth inhibition; at 50.0 µM (retest, dose inferred, filed as 5.0); active compounds read high
Compounds without any hit were thinned out: in the full panel of roughly 79,000, 15% have a hit. Active and inactive are the calls of the source. Rule as the data show it: active = growth inhibition above about 70%; inactive = the rest.
Task for the reader: assign each of the following molecules its reported growth inhibition.

Record excerpt, results attached:
1) CC12CCC(O)CC1CCC1C2CCC2(C)C(NC(=O)N(CCCl)N=O)CCC12 (stereo not drawn)	94% (active)
2) CC(=O)OC(C)(C)N=Nc1ccc(Br)cc1	99% (active)
3) Fc1ccc(CSC(=S)Nc2ccc(Br)cc2)cc1	99% (active)
4) Cc1cc(=Nc2ccc3c(c2)c(N)cc(C)[n+]3C)nc(N)n1C	90% (active)
5) NC(=O)N/N=C(/Cc1nc2ccccc2nc1C/C(=N/NC(N)=O)c1cccc2ccccc12)c1cccc2ccccc12	6% (inactive)

Batch: growth inhibition for all items listed.
1. COc1cccc(C=O)c1O
2. CCCCCCCCCCCCOC(=O)C[N+]1(C)CCCCC1
3. CCCCCCCCCCCC(=O)OCCN(CC)CC

Response given:
1: 66% (inactive); 2: 99% (active); 3: 99% (active)

----------
Experiment: NCI Yeast Anticancer Drug Screen. Data for the sgs1 mgt1 strain (AID 161);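 also: 0% = growth of cultures given vehicle only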
Details: S. cerevisiae sgs1 mgt1 strain, at 50.0 µM
This is part of a sample that, as a whole, favours compounds with a hit. Of some 79,000 tested, about 15% had one in any assay. Activity calls are given as the source filed them. No stated cut-off is given here; in the data, active means growth inhibition above about 70%; inactive means the rest.
Parameter call: string, one of YES (active), NO (inactive)

# count of solved cases: 5
1. Cc1ccc2cccc(N)c2c1	NO
2. Cc1ccc(N2CC3CC4(C)C=CC3(C2)O4)cc1 (stereo unspecified)	YES
3. CCOC(=O)N1C=C(C(=O)OC)C(c2ccccc2)C(C(=O)OC)=C1	NO
4. CCCC1CCCC1(CC(=O)c1ccccc1)C(=O)O (stereo unspecified)	YES
5. O=[N+]([O-])/C=C/C=C/c1ccco1	YES

Now examine the next entry.
Challenge: Test call for this molecule, please: CC(C)c1ccc2c(c1)CCC1C(C)(CNC(=O)S)CCCC21C.[Zn+2] (stereo unspecified)
Response given: NO

----------
Assay: NCI Yeast Anticancer Drug Screen. Data for the bub3 strain (AID 167)
Details: S. cerevisiae bub3 mutant strain, at 5.0 µM (retest, dose inferred, filed as 0.5), active compounds read high
Compounds without any hit were thinned out: in the full panel of roughly 79,000, 15% have a hit.
metric: growth inhibition (%)
Answers are plain numbers, in %.

1) COC1OC(=O)CC1C1CC=C2C3CCC4CC(O)CCC4(C)C3CCC21C (centres undefined)	-9

Batch: growth inhibition for all items listed.
1. O=[N+]([O-])/C(C=Nc1ccccc1)=C/Nc1ccccc1
2. CC(=Nc1ccc(S(=O)(=O)c2ccc(N=C(C)N3CCCCC3)cc2)cc1)N1CCCCC1

Response given:
1: 16; 2: -1

----------
Assay: NCI Yeast Anticancer Drug Screen. Data for the mlh1 rad18 strain (AID 175)
Settings: S. cerevisiae mlh1 rad18 strain growth inhibition; at 50.0 µM; active compounds read high
About 79,000 compounds went through this panel and 15% of them were active in at least one assay; those are over-represented in the sample as a whole.
metric: growth inhibition (%)
Numbers only, in %.

Record excerpt, results attached:
1. Cc1ccc([P+](CCN2C(=O)c3ccccc3C2=O)(c2ccc(C)cc2)c2ccc(C)cc2)cc1	87.7
2. C/C(=N/NC(=O)c1ccccc1S(N)(=O)=O)C(CN1CCCCC1)C(C1=C(O)C2C=CC=CC2OC1=O)c1ccccc1 (stereo not given)	88
3. COC(=O)c1nc(=S)[nH]c(C(=O)OC)c1C(=O)c1ccc([N+](=O)[O-])cc1	91
4. O=C(CCN1CCN(c2cccc(Cl)c2)CC1)N1CCc2c([nH]c3ccccc23)C1c1cccnc1 (stereo not given)	89.7

Challenge: Bench note: what growth inhibition did [N-]=[N+]=Nc1ccnc2ccc(C3CCCCC3)cc12 show?
Response given: 91.7

----------
Test: NCI Yeast Anticancer Drug Screen. Data for the rad50 strain (AID 155);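 also: 0% = growth of vehicle-only cultures of the same strain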
Details: S. cerevisiae rad50 strain growth inhibition; at 50.0 µM
This is part of a sample that, as a whole, favours compounds with a hit. Of some 79,000 tested, about 15% had one in any assay. The source made the active and inactive calls. Cut-off read from the data, not from the text of the source: active = growth inhibition above about 70%; inactive = the rest.
Parameter call: string, one of T = active, F = inactive

# count of solved cases: 4
1) CC(C)OC(=O)c1ccc(CCC2=CC(=O)C=CC2=O)cc1	T
2) Nc1ccc(S(=O)(=O)N2CCCc3ccccc32)cc1	T
3) C(=C/c1cnnc2ccccc12)/c1ccccn1	F
4) CCN(CC)c1ccc(NC(CC(O)c2ccccc2)c2ccccc2)cc1 (stereo not given)	F

Now examine the next entry.
Challenge: Test call for this compound, please: O=C(/C=C\c1cccc2ccccc12)c1ccccn1
Response given: T

----------
Assay: NCI Yeast Anticancer Drug Screen. Data for the cln2 rad14 strain (AID 165);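 also: 0% = growth equal to vehicle treated cultures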
Conditions: S. cerevisiae cln2 rad14 strain, at 50.0 µM (retest, dose inferred, filed as 5.0), active compounds read high
About 79,000 compounds went through this panel and 15% of them were active in at least one assay; those are over-represented in the sample as a whole.
metric: growth inhibition (%)
Answers are plain numbers, in %.

Record excerpt, results attached:
1) CCCC(C)OC(=O)Nc1cccc(Cl)c1 (stereo not drawn)	-1
2) CCCCCCCCCCCCCCCCCCOC(=O)C(N)CCCCN (stereo not drawn)	87

Challenge: Bench note: what growth inhibition did COc1cccc(C=O)c1O show?
Response given: 23

----------
Experiment: NCI Yeast Anticancer Drug Screen. Data for the mec2-1 strain (AID 157)
Details: S. cerevisiae mec2-1 strain, at 50.0 µM
Method: Growth inhibition of yeast strains with defined genetic alterations is measured as a screen for potential anti-cancer activity. Selected strains with alterations in DNA damage repair or cell cycle control were exposed to compounds and growth inhibition was measured relative to vehicle treated controls. The strain used in this assay is mec2-1
About 79,000 compounds went through this panel and 15% of them were active in at least one assay; those are over-represented in the sample as a whole. Active and inactive are the calls of the source. Rule as the data show it: active = growth inhibition above about 70%; inactive = the rest.
Parameter call: string, one of active, inactive

Challenge: Test call for this molecule, please: Cc1ccccc1NC(=O)CSC(N)=O
Response given: inactive

Challenge: Test call for this molecule, please: CCCCCCCCCCCCCCCCCc1nnc(N)o1
Response given: inactive

Challenge: Test call for this molecule, please: N#CC1(C#N)C(C#N)(C#N)C12CCCCCC2
Response given: active

Challenge: Test call for this molecule, please: O=S1(=O)C(Br)=Cc2ccccc21
Response given: active

----------
Test: NCI Yeast Anticancer Drug Screen. Data for the bub3 strain (AID 167)
Conditions: S. cerevisiae bub3 mutant strain, at 50.0 µM
About 79,000 compounds went through this panel and 15% of them were active in at least one assay; those are over-represented in the sample as a whole. Calls of active or inactive are those of the source. Cut-off read from the data, not from the text of the source: active = growth inhibition above about 70%; inactive = the rest.
Parameter call: string, one of TRUE (active), FALSE (inactive)

# count of solved cases: 5
1) CO/C(=N\N=C(/c1ccccc1)C(F)(F)F)c1ccncc1	TRUE
2) Nc1ccccc1SC(C[N+](=O)[O-])c1ccc2c(c1)OCO2 (stereo not drawn)	TRUE
3) Cc1ccc(O)c(N=Nc2ccc(Cl)cc2)c1	FALSE
4) O=C(NCCCN1CCN(CCCNC(=O)c2cc(-c3ccccc3)nc3ccccc23)CC1)c1cc(-c2ccccc2)nc2ccccc12	TRUE
5) CCOc1ccc2c(c1)[n+]([O-])c(-c1ccccc1)c(N)[n+]2[O-]	TRUE

Challenge: Test call for this compound, please: COc1ccc(Oc2cc3c[n+](C)ccc3cc2OC)cc1
Response given: TRUE

Challenge: Test call for this compound, please: CC(C)CC(C(=O)SCC(C)N1CCCC1)c1ccccc1 (stereo not drawn)
Response given: FALSE

Challenge: Test call for this compound, please: CC1SC2(C(=O)Nc3ccc(Br)cc32)N(c2ccc(Cl)cc2)C1=O (stereo not drawn)
Response given: TRUE

Challenge: Test call for this compound, please: O=c1[nH]c2c([N+](=O)[O-])cc(Cl)cc2nc1/C=C(\O)c1ccccn1
Response given: FALSE

Challenge: Test call for this compound, please: CC(C)CN(CC(C)C)CN1C(=O)/C(=C/c2ccc([N+](=O)[O-])cc2)SC1=S
Response given: FALSE
